system: Nucleic Acid; test: Binding affinity to calf thymus DNA assessed as change in melting temperature by thermal denaturation assay; format: nucleic-acid assay; conditions: Bos taurus
Measurement Name: ΔTm (°C)
Please respond with the number in °C and leave the unit unwritten.

Request: // returns reported ΔTm for input COc1ccc2cc3[n+](cc2c1OCC(=O)NCc1ccccc1)CCc1cc2c(cc1-3)OCO2.[Cl-]
Result: 14

Request: And COc1ccc2cc3[n+](cc2c1OC)CCc1cc2c(cc1-3)OCO2.[Cl-] [BERBERINE CHLORIDE] ?
Result: 9

Request: // query: COc1ccc2cc3[n+](cc2c1OCC(=O)NCCc1ccccc1)CCc1cc2c(cc1-3)OCO2.[Cl-]
Result: 12

Request: Subsequent entry: COc1ccc2cc3[n+](cc2c1OCC(=O)Nc1ccccc1)CCc1cc2c(cc1-3)OCO2.[Cl-]
Result: 15.5

====

Assign KSV to each entry below.
tested on: Nucleic Acid; test: Binding affinity to calf thymus DNA assessed as fluorescence quenching by fluorescence spectroscopy analysis; assay type: nucleic-acid assay; conditions: Bos taurus
Please give a number only; it is taken to be in M⁻¹.

Request: Sample COc1ccc2cc3[n+](cc2c1OCC(=O)NCCc1ccccc1)CCc1cc2c(cc1-3)OCO2.[Cl-] — what was its KSV?
Result: 37

Request: // same read-out, input: COc1ccc2cc3[n+](cc2c1OC)CCc1cc2c(cc1-3)OCO2.[Cl-] [BERBERINE CHLORIDE]
Result: 90

Request: Consider next the molecule COc1ccc2cc3[n+](cc2c1OCC(=O)NCc1ccccc1)CCc1cc2c(cc1-3)OCO2.[Cl-] in the same way.
Result: 48

Request: Now consider COc1ccc2cc3[n+](cc2c1OCC(=O)Nc1ccccc1)CCc1cc2c(cc1-3)OCO2.[Cl-] .
Result: 57
